- Study system: HIV-1 JR-CSF Env E321aA (HIV-1 isolate JR-CSF) (UniProt P20871)
- Protocol notes: cell-based or functional assay

Binder	Measure unit	Fold IC50 increase relative to wild-type
PGT-135 (antibody, V domains shown) VH: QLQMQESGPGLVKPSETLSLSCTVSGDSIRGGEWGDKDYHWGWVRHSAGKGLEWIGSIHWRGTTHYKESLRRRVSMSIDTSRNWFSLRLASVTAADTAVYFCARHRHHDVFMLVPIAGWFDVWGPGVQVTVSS VL: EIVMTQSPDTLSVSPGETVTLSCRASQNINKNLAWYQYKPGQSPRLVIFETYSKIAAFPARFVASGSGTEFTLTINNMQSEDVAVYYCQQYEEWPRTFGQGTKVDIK	fold	0.8
PGT-125 (antibody, V domains shown) VH: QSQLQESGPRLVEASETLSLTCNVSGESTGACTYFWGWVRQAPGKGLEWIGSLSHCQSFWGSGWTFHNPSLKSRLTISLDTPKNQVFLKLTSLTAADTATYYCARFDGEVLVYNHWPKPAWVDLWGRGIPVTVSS VL: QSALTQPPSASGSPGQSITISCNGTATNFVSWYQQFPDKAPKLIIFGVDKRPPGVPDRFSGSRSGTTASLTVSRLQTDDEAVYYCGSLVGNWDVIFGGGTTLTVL	fold	1
PGT-127 (antibody, V domains shown) VH: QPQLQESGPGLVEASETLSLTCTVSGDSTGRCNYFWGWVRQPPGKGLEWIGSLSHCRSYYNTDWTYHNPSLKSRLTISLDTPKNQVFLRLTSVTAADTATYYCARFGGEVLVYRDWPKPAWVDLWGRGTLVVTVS VL: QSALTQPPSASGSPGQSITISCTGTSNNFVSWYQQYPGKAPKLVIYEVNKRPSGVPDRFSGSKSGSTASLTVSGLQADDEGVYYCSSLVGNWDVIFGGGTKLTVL	fold	1.9
PGT-128 (antibody, V domains shown) VH: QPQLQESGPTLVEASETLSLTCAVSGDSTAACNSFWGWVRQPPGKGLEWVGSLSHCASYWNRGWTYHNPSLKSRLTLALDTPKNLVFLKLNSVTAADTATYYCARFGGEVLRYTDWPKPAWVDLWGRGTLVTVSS VL: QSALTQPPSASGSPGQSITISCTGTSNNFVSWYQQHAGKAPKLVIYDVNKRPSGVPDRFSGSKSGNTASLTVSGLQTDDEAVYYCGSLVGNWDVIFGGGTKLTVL	fold	1.3
PGT-123 (antibody, V domains shown) VH: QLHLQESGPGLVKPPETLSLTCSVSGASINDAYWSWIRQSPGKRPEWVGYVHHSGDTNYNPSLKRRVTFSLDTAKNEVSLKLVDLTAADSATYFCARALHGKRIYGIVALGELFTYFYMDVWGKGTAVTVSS VL: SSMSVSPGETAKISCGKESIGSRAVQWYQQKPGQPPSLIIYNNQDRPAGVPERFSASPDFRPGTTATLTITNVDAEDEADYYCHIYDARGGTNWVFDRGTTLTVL	fold	0.6

Entry source: patent US20200024330A1
